Collected Kb values appear next to each entry.
target: NK2 receptor (Oryctolagus cuniculus); construct: three smooth muscle preparations were used; from tissue; host or cells: rabbit pulmonary artery without endothelium (isolated smooth muscle); assay: Bio assay on isolated smooth muscle: rabbit pulmonary artery without endothelium; assay type: cell-based; conditions: antagonistic power, read-out: pA2 NK2 (converted)
Sequence (P79218 whole entry): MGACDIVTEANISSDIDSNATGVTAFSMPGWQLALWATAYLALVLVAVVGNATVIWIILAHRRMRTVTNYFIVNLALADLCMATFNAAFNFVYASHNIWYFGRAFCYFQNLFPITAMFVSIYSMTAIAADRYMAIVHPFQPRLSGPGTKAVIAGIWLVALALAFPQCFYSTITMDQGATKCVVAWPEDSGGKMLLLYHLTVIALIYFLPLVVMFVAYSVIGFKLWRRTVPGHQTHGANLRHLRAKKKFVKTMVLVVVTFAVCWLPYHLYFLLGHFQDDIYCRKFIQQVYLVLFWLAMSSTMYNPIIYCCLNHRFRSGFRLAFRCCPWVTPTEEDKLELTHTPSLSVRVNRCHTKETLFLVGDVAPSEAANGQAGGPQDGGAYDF
// units = µM; emit number, no label

CN(Cc1ccccc1)C(=O)[C@H](Cc1ccccc1)NC(=O)[C@@H](Cc1cn(C=O)c2ccccc12)NC(=O)C[C@@H]1NC(=O)[C@@H]2C3CCC(CC3)N2C1=O 13.8
CN(Cc1ccccc1)C(=O)[C@H](Cc1ccccc1)NC(=O)[C@@H](Cc1cn(C=O)c2ccccc12)NC(=O)C[C@@H]1NC(=O)[C@H](Cc2ccccc2)N(C)C1=O 13.5
CN(Cc1ccccc1)C(=O)[C@H](Cc1ccccc1)NC(=O)[C@@H](Cc1cn(C=O)c2ccccc12)NC(=O)C[C@H]1NC(=O)[C@H]2C3CCC(CC3)N2C1=O 2

Turning now to a further compound:
Query: For the compound CN(Cc1ccccc1)C(=O)[C@H](Cc1ccccc1)NC(=O)C[C@@H]1NC(=O)[C@@H]2Cc3ccccc3CN2C1=O , what Kb is on record?
Reply: 19.1
